Consider the following compounds; for each one, report its log10 IC50.
- TESTED SYSTEM: Recombinant human MALT-1 (amino acids 340-824) (Homo sapiens (Human), UniProt Q9UDY8)
- Sequence (Q9UDY8 340-824): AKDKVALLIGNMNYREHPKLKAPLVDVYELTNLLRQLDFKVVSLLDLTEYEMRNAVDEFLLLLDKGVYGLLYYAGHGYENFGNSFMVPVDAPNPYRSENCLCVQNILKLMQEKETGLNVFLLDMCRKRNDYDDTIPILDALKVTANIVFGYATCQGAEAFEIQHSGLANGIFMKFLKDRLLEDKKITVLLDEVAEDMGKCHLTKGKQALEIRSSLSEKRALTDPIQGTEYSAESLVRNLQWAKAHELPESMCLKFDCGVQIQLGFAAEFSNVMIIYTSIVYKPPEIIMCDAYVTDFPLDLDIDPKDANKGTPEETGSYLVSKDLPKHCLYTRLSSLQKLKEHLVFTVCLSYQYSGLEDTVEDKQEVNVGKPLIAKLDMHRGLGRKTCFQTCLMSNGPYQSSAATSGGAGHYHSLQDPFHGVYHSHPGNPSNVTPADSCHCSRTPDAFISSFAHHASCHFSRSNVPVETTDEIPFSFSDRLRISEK
- ASSAY DETAILS: MALT-1 inhibition assay (fluorogenic substrate Ac-LRSR-Rh110-DP)
- ASSAY CONDITIONS: recombinant human MALT-1, substrate Ac-LRSR-Rh110-DP
Remember, log10 of IC50, in µM.

IN: Name the recorded log10 IC50 for CC1CCc2c(cnc3cc(Cl)nn23)N1c1ccc([C@H](N(C)C(=O)C2CCS(=O)(=O)CC2)C(F)(F)F)cc1 (stereo partly shown) [CPD0072806] .
OUT: -1.16

IN: Name the recorded log10 IC50 for COc1ccc2ncc(Nc3ccc([C@H](N(C)C(=O)C4CCN(C(C)=O)CC4)C(F)(F)F)cc3)c([C@H]3CCOC3)c2n1 [CPD0082479] .
OUT: -0.95

Dear reader, for each entry below, please note its log10 IC50.
1. CN(C(=O)[C@H]1CC[S@](=N)(=O)CC1)[C@@H](c1ccc(N2CCC(C)(C)c3c2cnc2cc(Cl)nn32)cc1)C(F)(F)F (relative stereo) [CPD0072785]
2. CN(C(=O)CC1CCCS1(=O)=O)[C@@H](c1ccc(N2CCCc3c2cnc2cc(Cl)nn32)cc1)C(F)(F)F (stereo partly shown) [CPD0021934]
3. CN(C(=O)CC1CCS(=O)(=O)CC1)[C@@H](c1ccc(N2CCCc3c2cnc2cc(Cl)nn32)cc1)C(F)(F)F [CPD0073088]
4. COc1cc2ncc3c(n2n1)CCCN3c1ccc([C@H](N(C)C(=O)C2CCS(=O)(=O)CC2)C(F)(F)F)cc1 [CPD0019576]
5. CN(C)CC(=O)N1CC[C@@H](C(=O)N(C)[C@@H](c2ccc(N3CCCc4c3cnc3cc(Cl)nn43)cc2)C(F)(F)F)C1 (relative stereo) [CPD0075877]
6. CC(=O)N1CC[C@@H](C(=O)N(C)[C@@H](c2ccc(N3CCCc4c3cnc3cc(Cl)nn43)cc2)C(F)(F)F)C1 (relative stereo) [CPD0073188]
7. CN(C(=O)[C@@H]1CCN(C(=O)CO)C1)[C@@H](c1ccc(N2CCCc3c2cnc2cc(F)nn32)cc1)C(F)(F)F [CPD0075879]
8. COc1ccc2ncc(Nc3ccc([C@H](N(C)C(=O)[C@H]4CC[S@](=N)(=O)CC4)C(F)(F)F)cc3)c([C@H](C)OC)c2n1 (stereo in doubt) [CPD0073130]

OUT:
[-1.12, -0.43, -1.04, -0.50, -0.94, -0.95, -0.81, -1.21]

Dear reader, for each entry below, please note its log10 IC50.
1. CC(=O)N(C)[C@@H](c1ccc(N2CCCc3c2cnc2cc(Cl)nn32)cc1)C(F)(F)F [CPD0019349]
2. CN(C(=O)C1CCS(=O)(=O)CC1)[C@@H](c1ccc(N2CCCc3c2cnc2cc(Cl)nn32)c(F)c1)C(F)(F)F [CPD0021750]
3. CN(C(=O)[C@H]1CCN(C(=O)CO)C1)[C@@H](c1ccc(N2CCCc3c2cnc2cc(Cl)nn32)cc1)C(F)(F)F (relative stereo) [CPD0073977]
4. C[C@@H]1CCN(c2ccc([C@H](N(C)C(=O)[C@H]3CC[S@@](=N)(=O)CC3)C(F)(F)F)cc2)c2cnc3cc(F)nn3c21 (relative stereo) [CPD0074556]
5. C[C@H]1CCN(c2ccc([C@H](N(C)C(=O)[C@H]3CC[S@@](=N)(=O)CC3)C(F)(F)F)cc2)c2cnc3cc(Cl)nn3c21 (relative stereo) [CPD0073194]

OUT:
-0.64
-1.12
-1.41
-1.21
-1.70

Dear reader, for each entry below, please note its log10 IC50.
1. CN(C(=O)[C@H]1CC[S@@+]([O-])CC1)[C@@H](c1ccc(N2CCCc3c2cnc2cc(Cl)nn32)cc1)C(F)(F)F (relative stereo) [CPD0022136]
2. COc1ccc2ncc(Nc3ccc([C@H](N(C)C(=O)C4CCS(=O)(=O)CC4)C(F)(F)F)cc3)cc2n1 [CPD0018619]
3. CO[C@@H](C)c1c(Nc2ccc([C@H](N(C)C(=O)C3CC4(C3)CS(=O)(=O)C4)C(F)(F)F)cc2)cnn2cc(Cl)nc12 [CPD0084934]
4. COc1ccc2ncc(Nc3ccc([C@@H](N(C)C(=O)[C@H]4CC[S@@](=N)(=O)CC4)C(F)(F)F)cc3)c([C@H](C)OC)c2n1 (relative stereo) [CPD0077186]
5. CN(C(=O)C1(C#N)CCS(=O)(=O)CC1)[C@@H](c1ccc(N2CCCc3c2cnc2cc(Cl)nn32)cc1)C(F)(F)F [CPD0073553]
6. CC1CCN(c2ccc([C@H](N(C)C(=O)[C@H]3CC[S@@](=N)(=O)CC3)C(F)(F)F)cc2)c2cnc3cc(Cl)nn3c21 (stereo partly shown) [CPD0072812]

OUT:
[-1.35, -0.44, -1.27, -0.90, -1.30, -1.51]

Dear reader, for each entry below, please note its log10 IC50.
1. CN(C(=O)C1CCS(=O)(=O)CC1)[C@@H](c1ccc(N2CCCc3c2cnc2cc(Cl)nn32)cn1)C(F)(F)F [CPD0073056]
2. COc1ccc2ncc(Nc3ccc([C@H](N(C)C(=O)C4CCN(C(=O)CO)CC4)C(F)(F)F)cc3)c([C@@H]3CCOC3)c2n1 [CPD0082482]
3. CN(C(=O)CC1CCOC1)[C@@H](c1ccc(N2CCCc3c2cnc2cc(Cl)nn32)cc1)C(F)(F)F (stereo partly shown) [CPD0021874]
4. CC1CCN(c2ccc([C@H](N(C)C(=O)C3CCS(=O)(=O)CC3)C(F)(F)F)cc2)c2cnc3cc(Cl)nn3c21 (single isomer, unassigned) [CPD0021811]

OUT:
1: -0.71; 2: -1.14; 3: -0.59; 4: -1.17

###

- Test system: IL-2 secretion by human effector memory T cells (TEM)
- ASSAY DETAILS: Effector memory T cells IL-2 release assay
- Type: cell-based
- ASSAY CONDITIONS: T-cell; human CD4+ effector memory T cells, CD3/CD28 bead stimulation, 24 h; read-out: CD4TC IL2 IC50
READOUT KIND: pIC50
Give bare numbers, as −log10 of the molar value.

Solved cases (3 shown):
IN: Name the recorded pIC50 for `CN(C(=O)C1CCS(=O)(=O)CC1)[C@@H](c1ccc(N2CCCc3c2cnc2c(Cl)cnn32)cc1)C(F)(F)F` .
OUT: 5.48

IN: Name the recorded pIC50 for `Cc1ncc(C(=O)N(C)[C@@H](c2ccc(N3CCCc4c3cnc3cc(Cl)nn43)cc2)C(F)(F)F)n1C` .
OUT: 6.14

IN: Name the recorded pIC50 for `CC(=O)N(C)[C@@H](c1ccc(N2CCCc3c2cnc2cc(Cl)nn32)cc1)C(F)(F)F` .
OUT: 7.08

Dear reader, for each entry below, please note its pIC50.
1. CN(C(=O)[C@@H]1CCN(C(=O)CO)C1)[C@@H](c1ccc(N2CCCc3c2cnc2cc(Cl)nn32)cc1)C(F)(F)F (relative stereo)
2. CN(C(=O)CC1CCNC1)[C@@H](c1ccc(N2CCCc3c2cnc2cc(Cl)nn32)cc1)C(F)(F)F (stereo partly shown)

OUT:
1: 6.83; 2: 6.25

Dear reader, for each entry below, please note its pIC50.
1. CN(C(=O)[C@H]1CC[S@+]([O-])CC1)[C@@H](c1ccc(N2CCC(C)(C)c3c2cnc2cc(F)nn32)cc1)C(F)(F)F (relative stereo)
2. COC(C)c1c(Nc2ccc([C@H](N(C)C(=O)C3CCS(=O)(=O)CC3)C(F)(F)F)cn2)cnc2ccc(Cl)nc12 (stereo partly shown)

OUT:
[7.12, 6.72]

###

- TESTED SYSTEM: Recombinant human MALT-1 (amino acids 340-824) (Homo sapiens (Human))
- ASSAY DETAILS: MALT-1 inhibition assay (fluorogenic substrate Ac-LRSR-Rh110-DP)
- ASSAY CONDITIONS: recombinant human MALT-1, substrate Ac-LRSR-Rh110-DP
READOUT KIND: pIC50
Answers are plain numbers, as −log10 of the molar value.

IN: What reported pIC50 corresponds to `CN(C(=O)[C@H]1C[C@H]([S@+](C)(=N)[O-])C1)[C@@H](c1ccc(N2CCCc3c2cnc2cc(Cl)nn32)cc1)C(F)(F)F` on Recombinant human MALT-1 (amino acids 340-824) (Homo sapiens (Human))?
OUT: 7.22

IN: What reported pIC50 corresponds to CN(C(=O)[C@@H]1CC12CCS(=O)(=O)CC2)[C@@H](c1ccc(N2CCCc3c2cnc2cc(Cl)nn32)cc1)C(F)(F)F (relative stereo) on Recombinant human MALT-1 (amino acids 340-824) (Homo sapiens (Human))?
OUT: 6.96

IN: What reported pIC50 corresponds to CN(C(=O)[C@@H]1CNC(=O)C1)[C@@H](c1ccc(N2CCCc3c2cnc2cc(Cl)nn32)cc1)C(F)(F)F (stereo in doubt) on Recombinant human MALT-1 (amino acids 340-824) (Homo sapiens (Human))?
OUT: 7.37

IN: What reported pIC50 corresponds to `CN(C(=O)C1CCS(=O)(=O)CC1)[C@@H](c1ccc(N2CCCc3c2cnc2cc(F)nn32)nc1)C(F)(F)F` on Recombinant human MALT-1 (amino acids 340-824) (Homo sapiens (Human))?
OUT: 6.20

IN: What reported pIC50 corresponds to CN(C(=O)[C@H]1CC[S@@+]([O-])CC1)[C@@H](c1ccc(N2CCC(C)(C)c3c2cnc2cc(F)nn32)cc1)C(F)(F)F (relative stereo) on Recombinant human MALT-1 (amino acids 340-824) (Homo sapiens (Human))?
OUT: 7.12

Dear reader, for each entry below, please note its pIC50.
1. CN(C(=O)C1CN(S(C)(=O)=O)C1)[C@@H](c1ccc(N2CCCc3c2cnc2cc(Cl)nn32)cc1)C(F)(F)F
2. CN(C(=O)C1CCS(=O)(=O)CC1)[C@@H](c1ccc(N2CCC(C)(C)c3c2cnc2cc(Cl)nn32)nc1)C(F)(F)F

OUT:
1: 7.06; 2: 7.10

Dear reader, for each entry below, please note its pIC50.
1. C[C@@H]1CCN(c2ccc([C@H](N(C)C(=O)[C@@H]3CNC(=O)C3)C(F)(F)F)cc2)c2cnc3cc(Cl)nn3c21
2. COc1cncc2c1CCCN2c1ccc(C(N(C)C(=O)C2CCS(=O)(=O)CC2)C(F)(F)F)cc1 (stereo in doubt)
3. COC[C@@]1(C)CCN(c2ccc([C@H](N(C)C(=O)[C@H]3CC[S@+]([O-])CC3)C(F)(F)F)cc2)c2cnc3cc(Cl)nn3c21 (relative stereo)
4. CO[C@H](C)c1c(Nc2ccc([C@H](N(C)C(=O)C3CCS(=O)(=O)CC3)C(F)(F)F)cc2)cnn2cc(Cl)nc12
5. COc1cc([C@H](N(C)C(=O)C2CCS(=O)(=O)CC2)C(F)(F)F)ccc1N1CCCc2c1cnc1cc(Cl)nn21
6. CC(=O)N1CCC(C(=O)N(C)[C@@H](c2ccc(N3CC[C@H](C)c4c3cnc3cc(Cl)nn43)cc2)C(F)(F)F)CC1 (relative stereo)

OUT:
1. 7.34
2. 6.57
3. 7.10
4. 7.37
5. 6.43
6. 7.27

Dear reader, for each entry below, please note its pIC50.
1. CN(C(=O)[C@H]1CNC(=O)C1)[C@@H](c1ccc(N2CCCc3c2cnc2cc(Cl)nn32)cc1)C(F)(F)F (stereo in doubt)
2. CN(C(=O)[C@@H]1CCC(=O)N1C)[C@@H](c1ccc(N2CCCc3c2cnc2cc(Cl)nn32)cc1)C(F)(F)F
3. CN=[S@]1(=O)CC[C@@H](C(=O)N(C)[C@@H](c2ccc(N3CCCc4c3cnc3cc(Cl)nn43)cc2)C(F)(F)F)CC1 (relative stereo)
4. Cc1cc(N2CCCc3c2cnc2cc(Cl)nn32)ccc1[C@H](N(C)C(=O)C1CCS(=O)(=O)CC1)C(F)(F)F
5. CN(C(=O)C1CCS(=O)(=O)CC1)[C@@H](c1ccc(N2CCCc3c2cnc2cc(Cl)nn32)cc1)C(F)F
6. CCN(C(=O)C1CCS(=O)(=O)CC1)[C@@H](c1ccc(N2CCCc3c2cnc2cc(Cl)nn32)cc1)C(F)(F)F

OUT:
1: 7.28; 2: 7.21; 3: 7.23; 4: 6.90; 5: 6.36; 6: 6.97
